// data source = ChEMBL document CHEMBL1139053

Biological target: Protein-S-isoprenylcysteine O-methyltransferase (Homo sapiens)
Sequence (O60725 whole entry): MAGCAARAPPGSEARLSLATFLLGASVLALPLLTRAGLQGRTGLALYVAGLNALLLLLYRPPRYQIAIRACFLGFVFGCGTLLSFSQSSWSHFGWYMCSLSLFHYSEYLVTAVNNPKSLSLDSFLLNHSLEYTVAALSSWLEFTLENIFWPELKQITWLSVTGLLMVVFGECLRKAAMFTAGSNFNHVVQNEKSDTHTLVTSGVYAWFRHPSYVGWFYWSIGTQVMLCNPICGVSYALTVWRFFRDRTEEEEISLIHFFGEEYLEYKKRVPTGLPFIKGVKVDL
Test: Inhibition of ICMT expressed in Sf9 cells
metric name: IC50 (µM)

Example compounds with recorded IC50:
Cc1cccc(-c2ccc3c(c2)c(CC(N)=O)cn3Cc2ccccc2)c1 = 6.46
CCCCCCn1cc(CC(N)=O)c2cc(-c3ccc(F)c(Cl)c3)ccc21 = 9.33
NC(=O)Cc1cn(Cc2cccc(C(F)(F)F)c2)c2ccc(-c3cccc(F)c3)cc12 = 5.75

[1] CCCCCCn1cc(CC(N)=O)c2cc(-c3cccc(C)c3)ccc21
[2] NC(=O)Cc1cn(Cc2cccc(C(F)(F)F)c2)c2ccc(-c3cc(C(F)(F)F)cc(C(F)(F)F)c3)cc12
query: Returns: the label, 1 or 2 , whose recorded IC50 is the lower number. Please reply using the label of the selected record.
result: 1
(1: 7.41 µM, 2: 100 µM)
